From: PubChem BioAssay (Tox21)

- method.summary: qHTS assay for identifying genotoxic compounds that show differential cytotoxicity against isogenic chicken DT40 cell lines with known DNA damage response pathways - Rad54/Ku70 mutant cell line (AID 743015); also: nearly all actives have a fitted effect of over 60% in size; also: potency is read from the fitted curve at half-maximal effect
- measurement.context: DT40 Rad54/Ku70 mutant viability, CellTiter-Glo, 40 h; series mostly up to 66.8 µM
Records with an inconclusive call do not appear. Active and inactive are the calls of the source. Calls follow the shape of the dose curve; as a rule, active = well fitted cell-killing curve with a large enough effect in the repeat runs; inconclusive = weak or mixed curves; inactive = no such curve, though single readings can be large or run the other way.
measure.name: Potency

O=C(O[C@H]1CN2CCC1CC2)N1CCc2ccccc2[C@@H]1c1ccccc1 : 26.6 µM (active)
Cc1ncc(COP(=O)(O)O)c(CN)c1O : inactive
CO[C@H]1C[C@H](O[C@H]2[C@H](C)O[C@@H](O[C@@H]3/C(C)=C/C[C@@H]4C[C@@H](C[C@]5(C=C[C@H](C)[C@@H](C6CCCCC6)O5)O4)OC(=O)[C@@H]4C=C(C)[C@@H](O)[C@H]5OC/C(=C\C=C\[C@@H]3C)[C@]54O)C[C@@H]2OC)O[C@@H](C)[C@@H]1O : 5.96 µM (active)
CC(O)[C@@H]1NC(=O)[C@H](Cc2ccccc2)NC(=O)[C@H](C(C)O)NC(=O)[C@H](CCCCN)NC(=O)[C@H](Cc2c[nH]c3ccccc23)NC(=O)[C@H](Cc2ccccc2)NC(=O)[C@H](Cc2ccccc2)NC(=O)[C@H](CC(N)=O)NC(=O)[C@H](CCCCN)NC(=O)[C@@H](NC(=O)CNC(=O)[C@H](C)N)CSSC[C@@H](C(=O)O)NC(=O)[C@H](CO)NC1=O (stereo not given in full) : inactive

We next turn to a different compound, shown below.
Record request: Potency value, item C/C=C(/CC[C@@H](C)[C@H]1CC[C@H]2C3=CC[C@H]4[C@H](C)[C@@H](O)CC[C@]4(C)[C@H]3CC[C@]12C)C(C)C
inactive

---

- method.summary: qHTS assay to identify small molecule phospholipidosis (PLD) inducers (AID 1259344); also: % is scaled to controls: 0 for no effect and ±100 for the full control effect
- measurement.context: HepG2 phospholipidosis, LipidTOX Red imaging, 24 h; series mostly up to 38.3 µM
- Method: National Center for Advancing Translational Sciences [NCATS] Drug-induced Phospholipidosis (PLD) caused by cationic amphiphilic drugs is characterized by the appearance of unicentric or multicentric-lamellar bodies when viewed under electron microscope. […] Drug induced phospholipid accumulation is stained with the LipidTox dyes in red color which then is determined using an automated high content screening system. […]
Results filed as inconclusive are left out. Calls of active or inactive are those of the source. The call rests on the fitted dose curve; in most records, active means well fitted activation curve with a large enough effect; inconclusive means small, poorly fitted or top-dose-only effect; inactive means flat fitted curve, though single readings scatter.
measure.name: PLD induction

Sample answers from the record:
C[Se]CCC(N)C(=O)O (stereo not given) : inactive
CC(C)[C@H](N)C(=O)OCC(CO)OCn1cnc2c(=O)[nH]c(N)nc21 (stereo not given in full) : inactive
Cc1cccc(C)c1N(CCCc1cccnc1)C(=O)C(C)N (stereo not given) : -1.49% [at 1.53 µM] (inactive)
CCC(c1ccccc1)c1noc(CCN(CC)CC)n1 (stereo not given) : inactive

We next turn to a different compound, shown below.
Record request: PLD induction value, item COc1ccc(CC2c3cc(OC)c(OC)cc3CC[N+]2(C)CCC(=O)OCCCCCOC(=O)CC[N+]2(C)CCc3cc(OC)c(OC)cc3C2Cc2ccc(OC)c(OC)c2)cc1OC (stereo not given)
inactive

---

- method.summary: qHTS assay to test for compound auto fluorescence at 590 nm (red) in HepG2 cells (AID 720674); also: % is scaled to controls: 0 for no effect and ±100 for the full control effect
- measurement.context: HepG2 autofluorescence, red 540/590 nm, 1 h; series mostly up to 46 µM
Calls of active or inactive are those of the source. Calls come from the whole dose curve; as a rule, active = well fitted curve in the direction sought with a large enough effect in the repeat runs; inconclusive = weak or mixed curves; inactive = flat fitted curve, though single readings scatter.
measure.name: outcome

Sample answers from the record:
CC(CC(c1ccccc1)c1ccccc1)NC(C)(C)C (configuration not stated) : inactive
COc1cc2c(cc1OC)[C@@H](c1ccccc1)CN(C)CC2 : inactive
CC[C@@H](C(=O)O)[C@@H]1O[C@@H]([C@@H](C)[C@H](O)[C@H](C)C(=O)[C@H](CC)[C@H]2O[C@]3(C=C[C@@H](O)[C@]4(CC[C@@](C)([C@H]5CC[C@](O)(CC)[C@H](C)O5)O4)O3)[C@H](C)C[C@@H]2C)[C@@H](C)C[C@@H]1C : inactive
CCOC(=O)[C@H](CCc1ccccc1)N[C@@H](C)C(=O)N1CC2(C[C@H]1C(=O)O)SCCS2 : inactive
O=C(O)CO.[NH2-].[NH2-].[Pt+2] : inactive
CN1CC(O)c2cc(N=NC(N)=O)c(O)cc21 (configuration not stated) : inactive

We next turn to a different compound, shown below.
Record request: outcome value, item CO[C@@H]1[C@@H](O[C@@H]2O[C@H](C)[C@@H](O[C@H]3C[C@@](C)(O)[C@@H](O)[C@H](C)O3)[C@H](N(C)C)[C@H]2O)[C@@H](CC=O)C[C@@H](C)[C@@H](O[C@@H]2CC[C@H](N(C)C)[C@@H](C)O2)/C=C/C=C/C[C@@H](C)OC(=O)C[C@H]1O
inactive

---

- method.summary: qHTS assay for small molecule disruptors of the mitochondrial membrane potential - cell viability (AID 720634);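 also: human HepG2 liver cancer cells; % is scaled to controls: 0 for no effect and ±100 for the full control effect; nearly all actives have a fitted effect of over 20% in size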
- measurement.context: HepG2 viability, ATP luminescence (CellTiter-Glo), 1 h; series mostly up to 83.2 µM
Results filed as inconclusive are left out. Calls of active or inactive are those of the source. The call rests on the fitted dose curve. Positions of bridges follow the written chain, without caps; N, C: chain ends. Non-standard residues stand in square brackets, D forms with d. Residues, ends and D or L forms follow the SMILES beside them. *: point of attachment. X2 = CC[C@H](C)CCCCC(=O)*; Dab = NCC[C@H](N)C(=O)O
measure.name: outcome

CC(=O)N[C@@H]([C@@H](O)[C@H](O)[C@H](O)CO)[C@@H](O)CC(=O)C(=O)O : inactive
CC[C@H](C)CCCCC(=O)N[C@@H](CCN)C(=O)N[C@H](C(=O)N[C@@H](CCN)C(=O)N[C@H]1CCNC(=O)[C@H]([C@@H](C)O)NC(=O)[C@H](CCN)NC(=O)[C@H](CCN)NC(=O)[C@H](CC(C)C)NC(=O)[C@@H](CC(C)C)NC(=O)[C@H](CCN)NC1=O)[C@@H](C)O (X2-[Dab]T[Dab][Dab][Dab][dL]L[Dab][Dab]T; lactam 4-C) : inactive

---

- method.summary: qHTS assay to test for compound auto fluorescence at 590 nm (red) in HepG2 cells (AID 720674); also: % is scaled to controls: 0 for no effect and ±100 for the full control effect
- measurement.context: HepG2 autofluorescence, red 540/590 nm, 1 h; series mostly up to 46 µM
Activity calls are given as the source filed them. Calls come from the whole dose curve; as a rule, active = well fitted curve in the direction sought with a large enough effect in the repeat runs; inconclusive = weak or mixed curves; inactive = flat fitted curve, though single readings scatter. Positions of bridges follow the written chain, without caps; N, C: chain ends. Non-standard residues stand in square brackets, D forms with d. Residues, ends and D or L forms follow the SMILES beside them. ξ: configuration not given here. *: point of attachment. d(aThr) = C[C@@H](O)[C@@H](N)C(=O)O; ξThr(3R) = C[C@@H](O)C(N)C(=O)O; X3 = CC[C@@H](C)CCCCC(=O)*; dDab = NCC[C@@H](N)C(=O)O
measure.name: outcome

Sample answers from the record:
CCN(CC)CCCC(C)Nc1cc(/C=C/c2ccccc2Cl)nc2cc(Cl)ccc12 (stereo not given) : inactive
N[C@@H](C(=O)N[C@@H]1C(=O)N2C(C(=O)O)=C(CSc3cn[nH]n3)CS[C@H]12)c1ccc(O)cc1 : inactive
C[C@]12CC[C@@H]3c4ccc(O)cc4CC[C@H]3[C@@H]1CC[C@@H]2OP(=O)(O)O : inactive
CC(C)(C)NC[C@H](O)COc1ccccc1C1CCCC1 : inactive
S=C=Nc1ccc(N=C=S)cc1 : inactive
CN(C)CCOc1ccccc1Cc1ccccc1 (tested in a mixture with another compound) : inactive
NCCC[C@H](N)C(=O)O : inactive
CO/N=C(\C(=O)N[C@@H]1C(=O)N2C(C(=O)O)=C(CSc3nnnn3C)CS[C@H]12)c1csc(N)n1 : inactive

Please supply outcome for each of the following items, keeping them in order.
1. CCCCCCCCCCCCCCCC(=O)O[C@@H]1[C@@H](O)[C@@H](O)[C@@H]([C@H](NC(=O)[C@@H]2C[C@@H](CCC)CN2C)[C@H](C)Cl)O[C@@H]1SC
2. CC[C@@H](C)CCCCC(=O)N[C@H](CCN)C(=O)N[C@@H](C(=O)N[C@H](CCN)C(=O)N[C@@H]1CCNC(=O)C([C@@H](C)O)NC(=O)[C@@H](CCN)NC(=O)[C@@H](CCN)NC(=O)[C@@H](CC(C)C)NC(=O)[C@@H](Cc2ccccc2)NC(=O)[C@@H](CCN)NC1=O)[C@@H](C)O (stereo partly drawn) (X3-[dDab][d(aThr)][dDab][dDab][dDab][dF][dL][dDab][dDab][ξThr(3R)]; lactam 4-C)
3. C=C1CC[C@H](O)CC1=C/C=C1\CCC[C@]2(C)[C@@H]([C@H](C)CC[C@@H](O)C(C)(C)O)CC[C@@H]12
4. CCCc1ccc(C(=O)O)cc1
5. O=C(O)c1cc(N=Nc2ccc(O)c(C(=O)O)c2)ccc1O
6. O=C(CCCN1CCC(n2c(=S)[nH]c3ccccc32)CC1)c1ccc(F)cc1
7. CC1(O)CCC(C(C)(C)O)CC1 (stereo not given)
8. CN1CCC(CN2c3ccccc3Sc3ccccc32)C1 (stereo not given)

inactive
inactive
inactive
inactive
inactive
inactive
inactive
inactive

Please supply outcome for each of the following items, keeping them in order.
1. O=C(O)c1nc(=O)[nH]c(=O)[nH]1
2. C/C(=C(\CCOC(=O)c1ccccc1)SS/C(CCOC(=O)c1ccccc1)=C(/C)N(C=O)Cc1cnc(C)nc1N)N(C=O)Cc1cnc(C)nc1N

1. inactive
2. inactive

Please supply outcome for each of the following items, keeping them in order.
1. CO/N=C(\C(=O)N[C@@H]1C(=O)N2C(C(=O)O)=CCS[C@H]12)c1csc(N)n1
2. C[C@@H]1C[C@H]2[C@@H]3CCC4=CC(=O)C=C[C@]4(C)[C@@]3(F)[C@@H](O)C[C@]2(C)[C@@]1(O)C(=O)COC(=O)c1cccc(S(=O)(=O)O)c1
3. O=[N+]([O-])c1ccc(Oc2ccc(N=C=S)cc2)cc1
4. COc1ccc(C2(C#N)CCC(C(=O)O)CC2)cc1OC1CCCC1 (stereo not given)
5. CCN(CC)CCOC(=O)c1cccnc1
6. CC(CN1c2ccccc2Sc2cccnc21)N(C)C (stereo not given)
7. CN(C)c1ccc(C(=C2C=CC(=[N+](C)C)C=C2)c2c(O)c(S(=O)(=O)[O-])cc3cc(S(=O)(=O)O)ccc23)cc1
8. Cc1ncc(C[n+]2csc(CCOP(=O)(O)OP(=O)(O)O)c2C)c(N)n1

inactive
inactive
inactive
inactive
inactive
inactive
inactive
inactive

Please supply outcome for each of the following items, keeping them in order.
1. COCC1=C(C(=O)OC(C)OC(=O)OC(C)C)N2C(=O)[C@@H](NC(=O)/C(=N\OC)c3csc(N)n3)[C@H]2SC1 (stereo not given in full)
2. C[C@]12C=CC(=O)N[C@@H]1CC[C@@H]1[C@@H]2CC[C@]2(C)[C@@H](C(=O)Nc3cc(C(F)(F)F)ccc3C(F)(F)F)CC[C@@H]12
3. OCCO[C@@H]1[C@@H](O)[C@H](O)[C@@H](CO)O[C@@H]1O
4. CCC[C@@H]1C[C@@H](C(=O)N[C@@H]([C@H]2O[C@H](SC)[C@H](O)[C@@H](O)[C@H]2O)[C@H](C)Cl)N(C)C1
5. Cc1ncc(COP(=O)(O)O)c(CN)c1O
6. CCC(CN)CC(C)CCNCC(O)CNCC(C)CC(CC)CN (stereo not given)

inactive
inactive
inactive
inactive
inactive
inactive
